Origin of values: ChEMBL document CHEMBL4400521

target system: Neprilysin (NEP) (Homo sapiens)
Sequence (P08473 whole entry): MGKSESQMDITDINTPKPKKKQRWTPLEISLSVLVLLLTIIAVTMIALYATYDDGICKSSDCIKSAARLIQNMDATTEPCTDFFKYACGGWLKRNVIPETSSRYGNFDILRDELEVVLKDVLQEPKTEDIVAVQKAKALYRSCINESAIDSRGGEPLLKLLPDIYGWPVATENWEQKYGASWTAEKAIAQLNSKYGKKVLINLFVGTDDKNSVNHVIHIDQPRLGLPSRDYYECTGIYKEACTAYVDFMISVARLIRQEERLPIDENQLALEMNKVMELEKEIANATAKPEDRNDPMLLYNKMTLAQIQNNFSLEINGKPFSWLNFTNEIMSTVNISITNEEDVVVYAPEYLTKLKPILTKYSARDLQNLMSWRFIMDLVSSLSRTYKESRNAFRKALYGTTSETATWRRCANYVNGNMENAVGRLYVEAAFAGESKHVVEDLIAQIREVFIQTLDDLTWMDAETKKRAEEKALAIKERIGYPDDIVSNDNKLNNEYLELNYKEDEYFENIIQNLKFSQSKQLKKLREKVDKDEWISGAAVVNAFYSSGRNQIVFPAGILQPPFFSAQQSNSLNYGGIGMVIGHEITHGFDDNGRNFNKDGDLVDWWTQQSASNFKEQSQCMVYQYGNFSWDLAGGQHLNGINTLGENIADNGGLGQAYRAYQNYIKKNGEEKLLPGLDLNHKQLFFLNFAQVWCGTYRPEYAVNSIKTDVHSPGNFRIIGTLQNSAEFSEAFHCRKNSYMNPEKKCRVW
assay protocol: Substrate activity at recombinant human NEP (Tyr52 to Trp750 residues) expressed in HEK293 cells assessed as compound half life by LC-MS analysis
Assay type: ADME, cell-based
Non-standard residues stand in square brackets, D forms with d. Residues, ends and D or L forms follow the SMILES beside them. Phe(4-Br) = N[C@@H](Cc1ccc(Br)cc1)C(=O)O; NMeL = CN[C@@H](CC(C)C)C(=O)O; Nle = CCCC[C@H](N)C(=O)O; Aib = CC(C)(N)C(=O)O
measurement label: half-life
Write the figure, then the unit, nothing else.

Worked set:
CCCC[C@H](NC(=O)[C@@H]1CCCN1C(=O)CNC(=O)[C@H](CCCCN)NC(=O)[C@H](Cc1c[nH]cn1)NC(=O)[C@H](CO)NC(=O)[C@H](CC(C)C)NC(=O)[C@H](CCCNC(=N)N)NC(=O)[C@@H]1CCCN1C(=O)[C@H](CCCNC(=N)N)NC(=O)[C@H](CCC(N)=O)NC(=O)[C@H](CCCNC(=N)N)NC(=O)[C@H](CCCNC(=N)N)NC(=O)[C@H](Cc1ccccc1)NC(=O)[C@@H](N)CCCCN)C(=O)NC(C)(C)C(=O)N[C@@H](Cc1ccc(Br)cc1)C(=O)O (H-KFRRQRPRLSHKGP[Nle][Aib][Phe(4-Br)]-OH) : 42 min
CSCC[C@H](NC(=O)[C@@H]1CCCN1C(=O)CNC(=O)[C@H](CCCCN)NC(=O)[C@H](Cc1cnc[nH]1)NC(=O)[C@H](CO)NC(=O)[C@H](CC(C)C)NC(=O)[C@H](CCCNC(=N)N)NC(=O)[C@@H]1CCCN1C(=O)[C@H](CCCNC(=N)N)NC(=O)[C@H](CCC(N)=O)NC(=O)[C@H](CCCNC(=N)N)NC(=O)[C@H](CCCNC(=N)N)NC(=O)[C@H](Cc1ccccc1)NC(=O)[C@@H](N)CCCCN)C(=O)N1CCC[C@H]1C(=O)N[C@@H](Cc1ccccc1)C(=O)O : 24 min

What value of half-life has been recorded for this entry: CCCC[C@H](NC(=O)[C@@H]1CCCN1C(=O)CNC(=O)[C@H](CCCCN)NC(=O)[C@H](Cc1c[nH]cn1)NC(=O)[C@H](CO)NC(=O)[C@H](CC(C)C)N(C)C(=O)[C@H](CCCNC(=N)N)NC(=O)[C@@H]1CCCN1C(=O)[C@H](CCCNC(=N)N)NC(=O)[C@H](CCC(N)=O)NC(=O)[C@H](CCCNC(=N)N)NC(=O)[C@H](CCCNC(=N)N)NC(=O)[C@H](Cc1ccccc1)NC(=O)[C@@H](N)CCCCN)C(=O)NC(C)(C)C(=O)N[C@@H](Cc1ccc(Br)cc1)C(=O)O (H-KFRRQRPR[NMeL]SHKGP[Nle][Aib][Phe(4-Br)]-OH)
54 min

---

target system: Plasma kallikrein (KLKB1) (Homo sapiens)
Sequence (P03952 20-390 limits assumed): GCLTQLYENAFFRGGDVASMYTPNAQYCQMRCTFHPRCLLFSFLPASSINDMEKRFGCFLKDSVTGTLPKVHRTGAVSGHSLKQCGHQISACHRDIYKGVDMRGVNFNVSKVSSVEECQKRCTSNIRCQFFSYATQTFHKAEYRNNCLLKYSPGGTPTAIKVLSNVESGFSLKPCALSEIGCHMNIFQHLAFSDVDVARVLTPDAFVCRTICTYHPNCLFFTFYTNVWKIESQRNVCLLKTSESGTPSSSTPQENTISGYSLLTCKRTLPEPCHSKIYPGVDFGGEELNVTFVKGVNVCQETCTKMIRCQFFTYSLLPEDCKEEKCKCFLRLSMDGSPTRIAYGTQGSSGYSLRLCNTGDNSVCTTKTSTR
Sequence (P03952 391-638 limits assumed): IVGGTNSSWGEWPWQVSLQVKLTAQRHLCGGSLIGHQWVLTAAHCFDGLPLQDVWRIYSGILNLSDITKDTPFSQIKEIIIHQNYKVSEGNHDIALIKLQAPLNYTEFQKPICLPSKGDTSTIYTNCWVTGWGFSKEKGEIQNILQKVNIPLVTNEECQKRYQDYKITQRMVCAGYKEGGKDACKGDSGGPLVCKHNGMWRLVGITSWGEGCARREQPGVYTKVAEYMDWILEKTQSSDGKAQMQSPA
assay protocol: Substrate activity at KLKB1 in human plasma assessed as compound half life by LC-MS analysis
Type: ADME, cell-free
Non-standard residues stand in square brackets, D forms with d. Residues, ends and D or L forms follow the SMILES beside them. Phe(4-Br) = N[C@@H](Cc1ccc(Br)cc1)C(=O)O; NMeL = CN[C@@H](CC(C)C)C(=O)O; Nle = CCCC[C@H](N)C(=O)O; Aib = CC(C)(N)C(=O)O
measurement label: half-life (min)
Answers are plain numbers, in min.

Worked set:
CSCC[C@H](NC(=O)[C@@H]1CCCN1C(=O)CNC(=O)[C@H](CCCCN)NC(=O)[C@H](Cc1cnc[nH]1)NC(=O)[C@H](CO)NC(=O)[C@H](CC(C)C)NC(=O)[C@H](CCCNC(=N)N)NC(=O)[C@@H]1CCCN1C(=O)[C@H](CCCNC(=N)N)NC(=O)[C@H](CCC(N)=O)NC(=O)[C@H](CCCNC(=N)N)NC(=O)[C@H](CCCNC(=N)N)NC(=O)[C@H](Cc1ccccc1)NC(=O)[C@@H](N)CCCCN)C(=O)N1CCC[C@H]1C(=O)N[C@@H](Cc1ccccc1)C(=O)O : 1.2
CCCC[C@H](NC(=O)[C@@H]1CCCN1C(=O)CNC(=O)[C@H](CCCCN)NC(=O)[C@H](Cc1c[nH]cn1)NC(=O)[C@H](CO)NC(=O)[C@H](CC(C)C)NC(=O)[C@H](CCCNC(=N)N)NC(=O)[C@@H]1CCCN1C(=O)[C@H](CCCNC(=N)N)NC(=O)[C@H](CCC(N)=O)NC(=O)[C@H](CCCNC(=N)N)NC(=O)[C@H](CCCNC(=N)N)NC(=O)[C@H](Cc1ccccc1)NC(=O)[C@@H](N)CCCCN)C(=O)NC(C)(C)C(=O)N[C@@H](Cc1ccc(Br)cc1)C(=O)O (H-KFRRQRPRLSHKGP[Nle][Aib][Phe(4-Br)]-OH) : 18

Please turn your attention to the following entry.
What value of half-life has been recorded for this entry: CCCC[C@H](NC(=O)[C@@H]1CCCN1C(=O)CNC(=O)[C@H](CCCCN)NC(=O)[C@H](Cc1c[nH]cn1)NC(=O)[C@H](CO)NC(=O)[C@H](CC(C)C)N(C)C(=O)[C@H](CCCNC(=N)N)NC(=O)[C@@H]1CCCN1C(=O)[C@H](CCCNC(=N)N)NC(=O)[C@H](CCC(N)=O)NC(=O)[C@H](CCCNC(=N)N)NC(=O)[C@H](CCCNC(=N)N)NC(=O)[C@H](Cc1ccccc1)NC(=O)[C@@H](N)CCCCN)C(=O)NC(C)(C)C(=O)N[C@@H](Cc1ccc(Br)cc1)C(=O)O (H-KFRRQRPR[NMeL]SHKGP[Nle][Aib][Phe(4-Br)]-OH)
72
